# protocol.summary: Lipophilicity, log P of the compound
# Format: physicochemical
# recorded.conditions: octanol/water
assay.metric: logP
Numbers only.

| query.smiles | assay.metric | obs.value |
| --- | --- | --- |
| COc1cncc(-c2cnc(NC3CCNCC3)c3[nH]c(=O)c(C)cc23)c1 | logP | 2.7 |

Query block: Look up logP: Cc1cncc(-c2cnc(NC3CCNCC3)c3[nH]c(=O)c(C)cc23)c1
Result block: 2.4

###

# protocol.summary: Permeability across phosphatidyl choline membrane at pH 7.4 after 3 hrs by HPLC with UV detection method
# Type: ADME
# recorded.conditions: not told, read-out: permeability
assay.metric: Papp at 3 h

| query.smiles | Papp at 3 h |
| --- | --- |
| COc1cncc(-c2cnc(NC3CCNCC3)c3[nH]c(=O)c(C)cc23)c1 | < 0.3 ×10⁻⁶ cm/s |

Read the next record carefully.
Query block: Look up Papp at 3 h: Cc1cncc(-c2cnc(NC3CCNCC3)c3[nH]c(=O)c(C)cc23)c1
Result block: < 0.3 ×10⁻⁶ cm/s
